Answer each item with its documented TGI.
Tested on: SF-295 CNS
measurement.description: NCI tumour cell line growth inhibition, 48 h

Hello, please tell me recorded TGI for this one: "C/C(=N\NC(=S)N1CCN(c2ccccn2)CC1)c1cccc2cccnc12" 55.8 µM

Answer with reported TGI of "CC(=O)[CH-]C(=O)c1ccccc1.CC(=O)[CH-]C(=O)c1ccccc1.CC(=O)[CH-]C(=O)c1ccccc1.[Br-].[Zr+4]" > 100 µM

Complete the entry with TGI for "c1cc2c3ccsc3c3sccc3c2s1" > 100 µM

Note down TGI recorded for "C/C(=N/N)c1sc(-c2nc(C)c(/C(C)=N\N)s2)nc1C" > 100 µM

Please give the documented TGI of COC(=O)c1cc2c(cc1C(=O)OC)[C@@]1(C)CCCC(C)(C)C1CC2 (stereo not given in full) 37 µM

Please indicate TGI recorded for "COc1cccc(CCn2c(N)c(C#N)c3ccc([N+](=O)[O-])cc3c2=O)c1" > 31.6 µM

Give reported TGI value for "CC[P+]1(c2ccccc2)CCCCC1" > 100 µM

Determine its reported TGI: CCN(CC)CCCC(C)Nc1ccnc(/C=C/c2ccc(Cl)cc2)c1 (stereo not given) 6.3 µM

Report TGI for "O=C1c2c(O)cccc2Cc2cc(CO)cc(O)c21" 5.85 µM

Please report TGI for the following molecule: "CCOC(=O)c1ccc(N(CCOS(=O)(=O)c2ccc(C)cc2)CCOS(=O)(=O)c2ccc(C)cc2)cc1" > 100 µM

Give me measured TGI, please, for this molecule: CC[Si](CC)(CC)OC1[C@@H](O[Si](CC)(CC)CC)[C@@H](CNC(=O)NC)O[C@H]1n1cnc2c(NC(=O)Nc3ccccc3)ncnc21 (stereo not given in full) 11.7 µM

Annotate the molecule "O=C(Nc1cc2cc([N+](=O)[O-])ccc2oc1=O)c1cccs1" with its measured TGI. > 100 µM

Please report TGI for the following molecule: CC(=O)OCC1OC(n2c(O)c(N=NC(N)=S)c3ccc([N+](=O)[O-])cc32)C(OC(C)=O)C1OC(C)=O (stereo not given) > 100 µM

Input "COc1ccc2[nH]c3c(O)c(-c4c(C)cc5c([nH]c6ccc(OC)cc65)c4O)c(C)cc3c2c1" , output reported TGI. 8.86 µM

Answer with the recorded TGI for the molecule listed here: "CC(=O)c1ccc(Oc2c3ccccc3nc3occc23)cc1" 12.5 µM

Output TGI of Cc1ccc(O)c(C2=NNC(c3cccc(Cl)c3)C2)c1 (stereo not given) > 100 µM

Please supply the value of reported TGI for the item Oc1cc(O)c2c(c1)OC(c1ccc(O)c(O)c1)C(O)C2c1c(O)cc(O)c2c1OC(c1ccc(O)c(O)c1)C(O)C2 (stereo not given) > 100 µM

Identify the reported TGI for the following entry. O=c1[nH]c(=O)n(C2CC(O)C(COP(=O)(OCC(Cl)(Cl)Cl)OCC(Cl)(Cl)Cl)O2)cc1F (stereo not given) > 100 µM

Give TGI for the following molecule: "CCc1cccc(NC(=O)c2cc(/C=C/c3ccccc3)[nH]c(=S)n2)c1" > 100 µM

Tell me measured TGI for O=C(O)CCC(NC(=O)c1ccc(CNc2nc3cc(C(F)(F)F)ccc3nc2C(=O)O)cc1)C(=O)O (stereo not given) please. > 100 µM
